Target: TRPC6 (Homo sapiens)
Sequence (Q9Y210 1-931): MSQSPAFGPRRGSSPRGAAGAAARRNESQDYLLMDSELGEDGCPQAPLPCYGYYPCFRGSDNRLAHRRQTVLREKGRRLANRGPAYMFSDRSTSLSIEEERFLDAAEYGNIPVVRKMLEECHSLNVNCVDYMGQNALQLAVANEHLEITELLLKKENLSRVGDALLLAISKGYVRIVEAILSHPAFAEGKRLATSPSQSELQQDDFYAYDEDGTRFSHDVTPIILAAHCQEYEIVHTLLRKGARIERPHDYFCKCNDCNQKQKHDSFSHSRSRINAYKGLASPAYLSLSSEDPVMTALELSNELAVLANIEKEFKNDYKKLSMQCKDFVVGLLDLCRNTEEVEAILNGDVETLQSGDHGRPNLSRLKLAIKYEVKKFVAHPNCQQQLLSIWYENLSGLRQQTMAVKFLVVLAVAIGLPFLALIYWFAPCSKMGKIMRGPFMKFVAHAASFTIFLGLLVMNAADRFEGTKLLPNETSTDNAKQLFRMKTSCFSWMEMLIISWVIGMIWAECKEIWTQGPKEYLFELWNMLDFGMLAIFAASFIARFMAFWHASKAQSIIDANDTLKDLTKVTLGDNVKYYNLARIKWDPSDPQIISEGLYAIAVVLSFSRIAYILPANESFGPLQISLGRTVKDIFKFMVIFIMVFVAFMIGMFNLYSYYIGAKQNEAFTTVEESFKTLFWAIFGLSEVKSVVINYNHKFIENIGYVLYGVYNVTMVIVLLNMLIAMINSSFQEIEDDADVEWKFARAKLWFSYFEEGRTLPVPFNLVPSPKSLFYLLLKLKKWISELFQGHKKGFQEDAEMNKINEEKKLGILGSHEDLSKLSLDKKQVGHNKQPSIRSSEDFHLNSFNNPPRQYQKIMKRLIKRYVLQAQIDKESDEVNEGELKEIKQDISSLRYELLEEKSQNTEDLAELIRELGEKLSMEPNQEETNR
Assay: in vitro Patch Clamp
assay_endpoint: IC50
Write your answer as a measured quantity: the number, then the unit.

Answer with the recorded IC50 for the compound listed here: COc1cc(C(=O)N2CCC(c3ccc(N)nn3)CC2)ncc1Oc1ccc(F)cc1 [Compound 17]
0.019 µM
